Values from patent US20110195027A1

Can you tell me OD490 for the items I'm about to list?
- system tested: T1, CD9-ECL2(CD9 extracellular domain 2)-Fc antigen (human)
- T1 construct: also called CD9-ECL2-Fc; CD9-EC2-Fc
- T1 sequence (chain, as listed by the source limits assumed): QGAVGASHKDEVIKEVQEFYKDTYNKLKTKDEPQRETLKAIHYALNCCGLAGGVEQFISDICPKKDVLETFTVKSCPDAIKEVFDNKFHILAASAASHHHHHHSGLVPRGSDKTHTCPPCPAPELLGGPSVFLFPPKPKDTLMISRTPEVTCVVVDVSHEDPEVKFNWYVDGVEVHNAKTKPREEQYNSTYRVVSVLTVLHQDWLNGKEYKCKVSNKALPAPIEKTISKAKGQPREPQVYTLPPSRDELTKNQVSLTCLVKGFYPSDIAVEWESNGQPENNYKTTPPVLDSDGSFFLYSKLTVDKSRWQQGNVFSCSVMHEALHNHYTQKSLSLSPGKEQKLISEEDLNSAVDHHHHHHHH
- test method notes: phage ELISA

Field: example entries. Status: answers known.
binder	reported
CD9 3F3 scFv monoclonal phage antibody (scFv, V domains shown, not shown: small tags and cut ends) VH: QMQLVQSGAEVKKPGASVKLSCKASGYTFSSYWMHWVRQAPGQRLEWMGEINPGNGHTNYNEKFKSRVTITVDKSASTAYMELSSLRSEDTAVYYCGQDNSPPRIWGQGTLITVSS VL: QSALTQPASVSGSPGQSITISCTGTSSDVGGYNHVSWYQQHPGKAPKLLIYDVSNRPSGVSGRFSGSKSGNTASLTISGLQAEDEANYYCGSYTSSSTFEVFGTGTKVTVL	0.961
CD9 8A scFv monoclonal phage antibody (scFv, V domains shown, also called 8A3) VH: QVQLVQSGAEVKKPGASVKLSCKASGYTFSSYWMHWVRQAPGQRLEWMGEINPGNGHTNYNEKFKSRVTITVGKSASTAYMELSSLRSEDTAVYYCAREGVSAAGGLDHWGQGTQITVSS VL: DIQMTQSPSSLSVSTGARVTITCRASQGISNYLAWYQQKPGKAPKLLIYAASTLQSGVPSRFSGSGSGTDFTLTISSLQPEDFATYYCQQLNSYPLTFGGGTKVEIK	1.61
CD9 12F scFv monoclonal phage antibody (scFv, V domains shown, also called 12F3) VH: QVQLVQSGAEVKKPGASVKLSCKASGYTFSSYWMHWVRQAPGQRLEWMGEINPGNGHTNYNEKFKSRVTITVDKSASTAYMELSSLRSEDTAVYYCARELEEGAFDIWGQGTMVTVSS VL: DIQMTQSPSSLPASVGDRVTITCRASQGISSYLAWYQQKPGKAPKLLIYAASTLQSGVPSRFSGSGSGTDFTLTISSLQPEDFATYYCQQYDSVPLTFGGGTKVEIK	1.16

# context switch: different binder, same OD490
Input: Using the record for CD9 11G scFv monoclonal phage antibody (scFv, V domains shown, also called 11G3) VH: QVQLVQSGAEVKKPGASVKLSCKASGYTSSSYWMHWVRQAPGQRLEWMGEINPGNGHTNYNEKFKSRVTITVDKSASTAYMELSSLRSEDTAVYYCGQDNSPPRIWGQGTLVTVSS VL: DIQMTQSPSTLSASVGDRVTITCRASQTIGNLAWFQQKPGKAPKLLIYKASSLESGVPSRFSGSGSGTEFTLTISSLQPDDFATYYCQQYSDYWTFGQGTKVEIK , report its OD490.
Output: 2.24
